# Assay System: recombinant soluble homotrimeric HA of A/Solomon Islands/3/06 (H1N1) (Influenza A virus A/Solomon Islands/3/2006(H1N1))
# Protocol Text: trimeric HA microarray, transfection supernatant set 5
# Cond: remark: other sources report otherwise
The label is yes (1) for Trimeric HA Binding: RLU below 1000 RLU and no (0) for Trimeric HA Binding: RLU equal to or exceeding 1000 RLU.

[
  {
    "Binder": "TCN-538 (3206_O17) (antibody, V domains shown) VH: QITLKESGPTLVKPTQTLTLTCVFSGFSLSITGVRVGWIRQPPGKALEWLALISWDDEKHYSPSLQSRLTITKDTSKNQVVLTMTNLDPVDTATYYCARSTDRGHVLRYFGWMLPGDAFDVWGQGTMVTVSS VL: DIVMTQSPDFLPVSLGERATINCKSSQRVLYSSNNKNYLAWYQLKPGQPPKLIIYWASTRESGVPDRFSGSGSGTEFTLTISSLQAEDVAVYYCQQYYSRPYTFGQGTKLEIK",
    "Label Value": "no (0)"
  },
  {
    "Binder": "TCN-543 (5081_G23) (antibody, V domains shown) VH: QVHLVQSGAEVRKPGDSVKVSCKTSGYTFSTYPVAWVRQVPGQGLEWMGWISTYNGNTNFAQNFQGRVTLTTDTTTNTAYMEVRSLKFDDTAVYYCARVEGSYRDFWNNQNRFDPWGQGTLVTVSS VL: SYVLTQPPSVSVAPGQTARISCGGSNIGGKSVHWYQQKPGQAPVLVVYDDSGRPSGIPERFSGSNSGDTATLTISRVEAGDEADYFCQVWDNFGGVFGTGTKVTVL",
    "Label Value": "no (0)"
  },
  {
    "Binder": "TCN-539 (5056_A08) (antibody, V domains shown) VH: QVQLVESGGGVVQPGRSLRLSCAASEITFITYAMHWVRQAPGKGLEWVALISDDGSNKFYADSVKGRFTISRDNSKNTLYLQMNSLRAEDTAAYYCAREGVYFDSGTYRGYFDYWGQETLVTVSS VL: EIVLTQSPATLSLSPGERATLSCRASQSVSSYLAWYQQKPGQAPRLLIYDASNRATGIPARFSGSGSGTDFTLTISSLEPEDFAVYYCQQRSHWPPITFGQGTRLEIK",
    "Label Value": "yes (1)"
  },
  {
    "Binder": "TCN-540 (5060_F05) (antibody, V domains shown) VH: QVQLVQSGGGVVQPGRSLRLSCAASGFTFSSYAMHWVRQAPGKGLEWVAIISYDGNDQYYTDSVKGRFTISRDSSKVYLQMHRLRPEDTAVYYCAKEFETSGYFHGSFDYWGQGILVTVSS VL: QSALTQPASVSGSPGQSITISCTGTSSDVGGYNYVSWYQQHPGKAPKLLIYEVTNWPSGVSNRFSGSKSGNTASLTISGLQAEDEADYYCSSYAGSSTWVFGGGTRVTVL",
    "Label Value": "no (0)"
  }
]

These entries and their values trace back to patent US20150086555A1.
